# TARGET_OF_ASSAY: T1, RBFOX1 RRM RbFoxmut (Fox-RRM*) (Homo sapiens, UniProt Q9NWB1 109-208, R118D;E147R;N151S;E152T)
# T1 sequence: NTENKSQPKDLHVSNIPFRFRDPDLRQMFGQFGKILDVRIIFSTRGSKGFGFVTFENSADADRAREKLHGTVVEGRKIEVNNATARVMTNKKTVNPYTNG
# METHOD: EMSA; HiTS-Eq, 1 nM pool, 10 min; buffer printed only for the single-RNA assays: 10 mM Tris pH 7.5, 150 mM NaCl, 3.4 mM EDTA, 0.001% NP-40, 30 C
# ASSAY_SETUP: tags: His6 N-terminal (pET28a); label: 5' 32P
Over roughly 16,000 sequences, “ka relative to ugcaugu” has its median near 0.096; the highest 2% begin near 0.35. The full list was thinned out, with the highest values kept by preference.
VALUE_TYPE: binding signal

• AUGUUCG (DNA:RNA) RNA: GGGAGACCGGAAUUCAGAUUGUCCAUGUUCGUUAAAUCCCGUCGUAGCCACCA DNA 1: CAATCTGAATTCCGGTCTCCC DNA 2: TGGTGGCTACGACGGGATT = 0.412 KA relative to UGCAUGU
• GGGGGUG (DNA:RNA) RNA: GGGAGACCGGAAUUCAGAUUGUCCGGGGGUGUUAAAUCCCGUCGUAGCCACCA DNA 1: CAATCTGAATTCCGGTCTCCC DNA 2: TGGTGGCTACGACGGGATT = 0.289 KA relative to UGCAUGU
• GGGUGUC (DNA:RNA) RNA: GGGAGACCGGAAUUCAGAUUGUCCGGGUGUCUUAAAUCCCGUCGUAGCCACCA DNA 1: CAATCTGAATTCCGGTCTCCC DNA 2: TGGTGGCTACGACGGGATT = 0.368 KA relative to UGCAUGU
• GGGUGUG (DNA:RNA) RNA: GGGAGACCGGAAUUCAGAUUGUCCGGGUGUGUUAAAUCCCGUCGUAGCCACCA DNA 1: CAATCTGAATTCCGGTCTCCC DNA 2: TGGTGGCTACGACGGGATT = 0.441 KA relative to UGCAUGU
